B1: ZNF449 (parent)
chain: HKKKSPGEKPHRCPQCGKCFARKS

- Variants of: B1
- ASSAY NAME: protein stability index of a GFP-peptide fusion (GPS, HEK-293T) (PSI 1-6); higher = more stable;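 also: lentivirally expressed fusions sorted by FACS into six bins by GFP to DsRed ratio, PSI derived from sequencing read proportions per bin multiplied by bin number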
- APPLIED CONDITIONS: c terminus: a fixed tail appended
// classify(record): look up protein stability index in ranges A: < 3; B: ≥ 3 and < 4; C: ≥ 4

INPUT: Band for "S5P" ?
OUTPUT: A

INPUT: Band for "R22G" ?
OUTPUT: B

INPUT: Band for "K23R" ?
OUTPUT: B

INPUT: Band for "K2A" ?
OUTPUT: B

INPUT: Band for "K4H" ?
OUTPUT: B

INPUT: Band for "R22Q" ?
OUTPUT: B

INPUT: Band for "K2M" ?
OUTPUT: A

INPUT: Band for "F20A" ?
OUTPUT: B

INPUT: Band for "C19H" ?
OUTPUT: C

INPUT: Band for "Q15Y" ?
OUTPUT: B

INPUT: Band for "C19M" ?
OUTPUT: A

INPUT: Band for "H11M" ?
OUTPUT: B

INPUT: Band for "C13Q" ?
OUTPUT: B

INPUT: Band for "S5L" ?
OUTPUT: B

INPUT: Band for "C16A" ?
OUTPUT: C

INPUT: Band for "P10A" ?
OUTPUT: C

INPUT: Band for "C13V" ?
OUTPUT: C

INPUT: Band for "G17W" ?
OUTPUT: B

INPUT: Band for "K3W" ?
OUTPUT: B

INPUT: Band for "K18V" ?
OUTPUT: A

INPUT: Band for "Q15E" ?
OUTPUT: B
